Recorded Population Mitochondria Different-Phenotype (%) values for a group of molecules are listed next.
system: U2OS; experiment: Multiplex assay against U2OS; format: toxicity, cell-based; details: human, 48 h, 10 µM, compound concentration 10 uM, replicate 2
Non-standard residues stand in square brackets, D forms with d. Residues, ends and D or L forms follow the SMILES beside them.
observation.type: Population Mitochondria Different-Phenotype (%)

molecule: Cn1cc(C(=O)OCC2CCN(CCNS(C)(=O)=O)CC2)c2ccccc21
unit.abbreviation: %
reported.result: 6

molecule: CCCCC[C@H](O)/C=C/[C@H]1[C@H](O)CC(=O)[C@@H]1CCCCCCC(=O)O
unit.abbreviation: %
reported.result: 1

molecule: Cc1cc(NC(=O)NCCN2CCC(O)(Cc3ccccc3)CC2)c2ccccc2n1
unit.abbreviation: %
reported.result: 4

molecule: O=C(O)CCC/C=C\CC1C(O)CC(O)C1/C=C/C(O)COc1cccc(Cl)c1 (stereo not given)
unit.abbreviation: %
reported.result: 2

molecule: CCC(=O)OCC(=O)[C@@]1(OC(=O)CC)[C@@H](C)C[C@H]2[C@@H]3CCC4=CC(=O)C=C[C@]4(C)[C@@]3(Cl)[C@@H](O)C[C@@]21C [BECLOMETHASONE DIPROPIONATE]
unit.abbreviation: %
reported.result: 36

molecule: Cc1nn(C)c2nc(NNC(=O)Nc3cc(Cl)nc(Cl)c3)cc(C(C)C)c12
unit.abbreviation: %
reported.result: 63

molecule: O=c1ccc2ccc(OCCCCN3CCN(c4cccc5sccc45)CC3)cc2[nH]1
unit.abbreviation: %
reported.result: 90

molecule: Cc1c(Cc2ccc3ccccc3n2)c2cc(F)ccc2n1CC(=O)O
unit.abbreviation: %
reported.result: 3

molecule: CCn1c(-c2nc3cc(C(=O)N4CCCC(N)C4)ccc3n2C)cc2ccccc21.Cl (stereo not given)
unit.abbreviation: %
reported.result: 39

molecule: CN1CCN(c2ccc(Nc3c4ccccc4nc4ccccc34)cc2)CC1.Cl.Cl.O
unit.abbreviation: %
reported.result: 96

molecule: CC(C)(O)C(=O)N1CCN(c2ccc(C(F)(F)F)c(C3=C(c4c[nH]c5ccccc45)C(=O)NC3=O)c2)CC1
unit.abbreviation: %
reported.result: 14

molecule: COc1cc(Nc2ncc3c(n2)-c2ccc(Cl)cc2C(c2c(F)cccc2OC)=NC3)ccc1C(=O)O
unit.abbreviation: %
reported.result: 3

molecule: Cc1cc(=O)n(C)c2cc(N3C(=O)CC[C@H](NS(=O)(=O)CC(C)C)[C@H]3c3ccc(Cl)cc3)ccc12
unit.abbreviation: %
reported.result: 35

molecule: CN1CCN2c3ccccc3Cc3ccccc3C2C1.Cl (stereo not given) [MIANSERIN HYDROCHLORIDE]
unit.abbreviation: %
reported.result: 3

molecule: C[C@H](NC(=O)CNC(=O)c1cccc(Cl)c1)c1ccccc1
unit.abbreviation: %
reported.result: 1

molecule: CC(C)C[C@@H]1NC(=O)[C@@H](C(C)C)NC(=O)[C@@H]2CCCN2C(=O)[C@@H](CC(=O)O)NC(=O)[C@@H](Cc2c[nH]c3ccccc23)NC1=O [BQ-123] (cyclo(L[dW][dD]P[dV]))
unit.abbreviation: %
reported.result: 6

molecule: CC(C)C[C@H](CO)Nc1nc(S[C@@H](C)c2ccccc2)nc2nc(N)sc12
unit.abbreviation: %
reported.result: 5

molecule: CN1CCC(C(=O)c2cccc(NC(=O)c3c(F)cc(F)cc3F)n2)CC1
unit.abbreviation: %
reported.result: 10

molecule: Cc1sc2c(c1C)C(c1ccc(Cl)cc1)=N[C@H](CC(=O)OC(C)(C)C)c1nnc(C)n1-2
unit.abbreviation: %
reported.result: 8

molecule: N[C@](CC1c2ccccc2Oc2ccccc21)(C(=O)O)[C@H]1C[C@@H]1C(=O)O
unit.abbreviation: %
reported.result: 1

molecule: COc1ccc2[nH]c(I)c(CCNC(C)=O)c2c1
unit.abbreviation: %
reported.result: 5

molecule: Nc1nc(CC(=O)Nc2ccc(CCNC[C@H](O)c3ccccc3)cc2)cs1
unit.abbreviation: %
reported.result: 3

molecule: CCc1nn2c(C)cc(C)nc2c1Cc1ccc(-c2nnc(C3CCNCC3)o2)cc1
unit.abbreviation: %
reported.result: 31

molecule: COC(c1ccccc1)(c1ccccc1)[C@H](Oc1nc(C)cc(C)n1)C(=O)O
unit.abbreviation: %
reported.result: 0

molecule: COc1cc2nc(N3CCN(C(=O)COc4c(OC)cccc4C(C)C)CC3)nc(N)c2cc1OC.Cl.Cl
unit.abbreviation: %
reported.result: 10

molecule: COc1ccc2c(c1OCc1ccccc1)C[C@@H](C(=O)O)N(C(=O)C(c1ccccc1)c1ccccc1)C2
unit.abbreviation: %
reported.result: 6

molecule: COc1cc2nc(N3CCN(C(=O)c4ccco4)CC3)nc(N)c2cc1OC.Cl [PRAZOSIN HYDROCHLORIDE]
unit.abbreviation: %
reported.result: 6

molecule: COc1c(Nc2ccc(S(C)(=O)=O)nc2C)ncnc1OC1CCN(C(=O)OC(C)C)CC1
unit.abbreviation: %
reported.result: 0

molecule: Cc1cc(O)c(-c2ccc([C@@H](C)CN(C)C)cc2)c2c1[nH]c(=O)c1sccc12
unit.abbreviation: %
reported.result: 50

molecule: C[C@@H]1CC(=O)Nc2cccc(-c3ccc4c(c3)c(-c3cnn(C)c3)nn4C)c2N1
unit.abbreviation: %
reported.result: 0

molecule: O=C(Nc1cc(-c2ccccc2)nn1-c1ccccc1F)c1ccc([N+](=O)[O-])cc1
unit.abbreviation: %
reported.result: 8

molecule: CSc1nc(NC2CCCC2)c([N+](=O)[O-])c(NC2CCCC2)n1
unit.abbreviation: %
reported.result: 3

molecule: CN(C)C(=O)Cn1cc(-c2ccc(-c3nnc4ccccn34)cc2)cn1
unit.abbreviation: %
reported.result: 2

molecule: Cc1ccc(OCC(O)C(C)NC(C)C)c2c1CCC2.Cl (stereo not given)
unit.abbreviation: %
reported.result: 4

molecule: COc1cc(C(=O)N2CC[C@@H](O)[C@@H](N)C2)cc2nc(-c3cc4ccccc4n3CC3CC3)n(C)c12.Cl
unit.abbreviation: %
reported.result: 84

----------
tested on: HEK-293T; assay: Multiplex assay against HEK293T; assay type: toxicity, cell-based; details: human, 48 h, 1 µM, compound concentration 1 uM, replicate 1
observation.type: Population Apoptotic (%)

molecule: Cc1c(Cc2ccc3ccccc3n2)c2cc(F)ccc2n1CC(=O)O
observation.type: Population Apoptotic (%)
reported.result: 26
//
molecule: CCCCCCNC(=O)Nc1ccc(S(=O)(=O)Nc2ccc(CCNC[C@H](O)COc3ccc(O)cc3)cc2)cc1
observation.type: Population Apoptotic (%)
reported.result: 10
//
molecule: Cc1sc2c(c1C)C(c1ccc(Cl)cc1)=N[C@H](CC(=O)OC(C)(C)C)c1nnc(C)n1-2
observation.type: Population Apoptotic (%)
reported.result: 18
//
molecule: CC(F)(F)CN1CCOc2c(nn(-c3ccccc3Cl)c2-c2ccc(Cl)cc2)C1=O
observation.type: Population Apoptotic (%)
reported.result: 22
//
molecule: O=c1ccc2ccc(OCCCCN3CCN(c4cccc5sccc45)CC3)cc2[nH]1
observation.type: Population Apoptotic (%)
reported.result: 49
//
molecule: COc1ccc2c(c1OCc1ccccc1)C[C@@H](C(=O)O)N(C(=O)C(c1ccccc1)c1ccccc1)C2
observation.type: Population Apoptotic (%)
reported.result: 26
//
molecule: CCC(=O)OCC(=O)[C@@]1(OC(=O)CC)[C@@H](C)C[C@H]2[C@@H]3CCC4=CC(=O)C=C[C@]4(C)[C@@]3(Cl)[C@@H](O)C[C@@]21C [BECLOMETHASONE DIPROPIONATE]
observation.type: Population Apoptotic (%)
reported.result: 30
//
molecule: CN1CCC(C(=O)c2cccc(NC(=O)c3c(F)cc(F)cc3F)n2)CC1
observation.type: Population Apoptotic (%)
reported.result: 22

----------
tested on: HEK-293T; experiment: Multiplex assay against HEK293T; type: toxicity, cell-based; conditions: human, 24 h, 1 µM, compound concentration 1 uM, replicate 2
Non-standard residues stand in square brackets, D forms with d. Residues, ends and D or L forms follow the SMILES beside them.
observation.type: Population Mitochondria Different-Phenotype (%)

compound: C[C@H](NC(=O)CNC(=O)c1cccc(Cl)c1)c1ccccc1
assay.target: HEK-293T
reported.result: 32

compound: C[C@@H]1CC(=O)Nc2cccc(-c3ccc4c(c3)c(-c3cnn(C)c3)nn4C)c2N1
assay.target: HEK-293T
reported.result: 48

compound: O=C(O)CCC/C=C\CC1C(O)CC(O)C1/C=C/C(O)COc1cccc(Cl)c1 (stereo not drawn)
assay.target: HEK-293T
reported.result: 37

compound: CC(F)(F)CN1CCOc2c(nn(-c3ccccc3Cl)c2-c2ccc(Cl)cc2)C1=O
assay.target: HEK-293T
reported.result: 31

compound: Cc1cc(O)c(-c2ccc([C@@H](C)CN(C)C)cc2)c2c1[nH]c(=O)c1sccc12
assay.target: HEK-293T
reported.result: 93

compound: Cc1cc(-c2ccc3c(c2)CC[C@H]3N2CC3(CCN(C(=O)Cc4cn5cc(C)sc5n4)CC3)C2)ncn1
assay.target: HEK-293T
reported.result: 35

compound: OCCCNc1cc(-c2ccnc(Nc3cccc(Cl)c3)n2)ccn1
assay.target: HEK-293T
reported.result: 86

compound: Cc1nn(C)c2nc(NNC(=O)Nc3cc(Cl)nc(Cl)c3)cc(C(C)C)c12
assay.target: HEK-293T
reported.result: 37

compound: O=C(NCCNCC(O)COc1ccc(O)cc1)N1CCOCC1.O=C(NCCNCC(O)COc1ccc(O)cc1)N1CCOCC1.O=C(O)/C=C/C(=O)O (stereo not drawn) [XAMOTEROL FUMARATE]
assay.target: HEK-293T
reported.result: 38

compound: COc1cc(Nc2ncc3c(n2)-c2ccc(Cl)cc2C(c2c(F)cccc2OC)=NC3)ccc1C(=O)O
assay.target: HEK-293T
reported.result: 47

compound: COc1cc2nc(N3CCN(C(=O)COc4c(OC)cccc4C(C)C)CC3)nc(N)c2cc1OC.Cl.Cl
assay.target: HEK-293T
reported.result: 44

compound: Cc1sc2c(c1C)C(c1ccc(Cl)cc1)=N[C@H](CC(=O)OC(C)(C)C)c1nnc(C)n1-2
assay.target: HEK-293T
reported.result: 43

compound: COc1cc(OC2CCN(C(C)=O)CC2)ccc1C(=O)N1CCC(N2C(=O)OCc3ccccc32)CC1
assay.target: HEK-293T
reported.result: 40

compound: Cn1cc(C(=O)OCC2CCN(CCNS(C)(=O)=O)CC2)c2ccccc21
assay.target: HEK-293T
reported.result: 42

compound: CN1C[C@H](C(=O)N[C@]2(C)O[C@@]3(O)[C@@H]4CCCN4C(=O)[C@H](Cc4ccccc4)N3C2=O)C[C@@H]2c3cccc4[nH]cc(c34)C[C@H]21.CS(=O)(=O)O [DIHYDROERGOTAMINE MESYLATE]
assay.target: HEK-293T
reported.result: 41

compound: CC(C)C[C@H](CO)Nc1nc(S[C@@H](C)c2ccccc2)nc2nc(N)sc12
assay.target: HEK-293T
reported.result: 42

compound: C=CCN1C[C@H](C(=O)N(CCCN(C)C)C(=O)NCC)C[C@@H]2c3cccc4[nH]cc(c34)C[C@H]21
assay.target: HEK-293T
reported.result: 46

compound: COc1ccc2[nH]c(I)c(CCNC(C)=O)c2c1
assay.target: HEK-293T
reported.result: 37

compound: Cc1ccc(OCC(O)C(C)NC(C)C)c2c1CCC2.Cl (stereo not drawn)
assay.target: HEK-293T
reported.result: 45

compound: COc1c(Nc2ccc(S(C)(=O)=O)nc2C)ncnc1OC1CCN(C(=O)OC(C)C)CC1
assay.target: HEK-293T
reported.result: 34

compound: COC(c1ccccc1)(c1ccccc1)[C@H](Oc1nc(C)cc(C)n1)C(=O)O
assay.target: HEK-293T
reported.result: 39

compound: Cc1cc(NC(=O)NCCN2CCC(O)(Cc3ccccc3)CC2)c2ccccc2n1
assay.target: HEK-293T
reported.result: 45

compound: CCCCC[C@H](O)/C=C/[C@H]1[C@H](O)CC(=O)[C@@H]1CCCCCCC(=O)O
assay.target: HEK-293T
reported.result: 35

compound: COc1cc(C(=O)N2CC[C@@H](O)[C@@H](N)C2)cc2nc(-c3cc4ccccc4n3CC3CC3)n(C)c12.Cl
assay.target: HEK-293T
reported.result: 64

compound: CCCCCCNC(=O)Nc1ccc(S(=O)(=O)Nc2ccc(CCNC[C@H](O)COc3ccc(O)cc3)cc2)cc1
assay.target: HEK-293T
reported.result: 42

compound: COCCn1c(C)c(C)s/c1=N\C(=O)C1C(C)(C)C1(C)C
assay.target: HEK-293T
reported.result: 47

compound: CC(C)C[C@@H]1NC(=O)[C@@H](C(C)C)NC(=O)[C@@H]2CCCN2C(=O)[C@@H](CC(=O)O)NC(=O)[C@@H](Cc2c[nH]c3ccccc23)NC1=O [BQ-123] (cyclo(L[dW][dD]P[dV]))
assay.target: HEK-293T
reported.result: 35

compound: CN(C)C/C=C/C(=O)Nc1ccc(C(=O)N2CCCC(Nc3ncc(Cl)c(-c4c[nH]c5ccccc45)n3)C2)cc1 (stereo not drawn)
assay.target: HEK-293T
reported.result: 89

compound: COc1cc2nc(N3CCN(C(=O)c4ccco4)CC3)nc(N)c2cc1OC.Cl [PRAZOSIN HYDROCHLORIDE]
assay.target: HEK-293T
reported.result: 45

compound: N[C@](CC1c2ccccc2Oc2ccccc21)(C(=O)O)[C@H]1C[C@@H]1C(=O)O
assay.target: HEK-293T
reported.result: 30

compound: CN1CCN(c2ccc(Nc3c4ccccc4nc4ccccc34)cc2)CC1.Cl.Cl.O
assay.target: HEK-293T
reported.result: 44

compound: Nc1nc(-c2ccco2)c2cnn(Cc3ccccc3F)c2n1
assay.target: HEK-293T
reported.result: 46

compound: Nc1nc(CC(=O)Nc2ccc(CCNC[C@H](O)c3ccccc3)cc2)cs1
assay.target: HEK-293T
reported.result: 41
